Reported growth inhibition values follow for various molecules
Test: NCI Yeast Anticancer Drug Screen. Data for the CLN2oe strain (AID 163);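 further: 0% = growth of vehicle-only control cultures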
Conditions: S. cerevisiae CLN2oe strain, at 1.2 µM, hits give high values
The panel holds about 79,000 compounds, 15% with a hit somewhere; the sample as a whole holds those more often.
Give the quantity in %, number only.

Please review the entries below; each comes with its answer.
# Molecule, growth inhibition [%]
records = [
    ("C(CCSC1=NCCN1)CSC1=NCCN1 (tested in a mixture with another compound)", -5),
    ("CN(C)CCn1c2c3ccccc3ccc2c2oc(=O)c3ccccc3c21", -2),
    ("CN(C)c1nc2sc3c(c2c(=O)o1)CCCC3", 1),
    ("Cc1ccc(-n2cc(-c3ccc(Cl)cc3)c(C#N)c2N)cc1", -6),
    ("O=Nc1cccnc1N=O", 5),
]

Data point: COc1cc2c(cc1[N+](=O)[O-])C(=O)C(Br)(Br)CCC2 ; growth inhibition = 21

Data point: CCOC(=O)c1cc([N+](=O)[O-])cc([N+](=O)[O-])c1Sc1ncnc2nc[nH]c12 ; growth inhibition = -19

Data point: CC(C)/C(Cl)=N\OC(=O)Nc1ccccc1F ; growth inhibition = 15

Data point: O=C(OCC=C1CCCC1)c1cc([N+](=O)[O-])cc([N+](=O)[O-])c1 ; growth inhibition = -6

Data point: COC1=CC(=O)C2C(C1=O)C(c1ccc(Cl)cc1)[C@@H]2C (some centres not stated) ; growth inhibition = 19

Data point: Cc1ccc(N)c(S)c1 ; growth inhibition = -15

Data point: Cc1cccc2c(C(O)CBr)cc(-c3ccc(Cl)cc3)nc12 (configuration not stated) ; growth inhibition = -2
